experiment notes: viability loss with induced miR-34 in A549 – imaging, A549 dox-inducible miR-34, nuclei and caspase counts, primary screen (AID 1347080); note: test concentration not given here
settings: A549 miR-34 inducible, Hoechst nuclei count, 48 h; measured here: total cells with miR-34 induction; stronger effect = lower value
cell count strictly under 8000 means fulfilled; at 8000 or over means not fulfilled.

# input Does CNc1ncnc2c1ncn2C1OC(CO)C(O)C1O (stereo not drawn) have cell count strictly under 8000?
# output fulfilled

# input Bench note: check whether CCC(=O)OC(OP(=O)(CCCCc1ccccc1)CC(=O)N1C[C@H](C2CCCCC2)C[C@H]1C(=O)O)C(C)C (stereo partly drawn) shows cell count below 8000
# output not fulfilled

# input Item O=C(O)C(C(=O)O)c1ccccc1 : cell count beneath 8000, strictly?
# output not fulfilled

# input Regarding Cc1[nH]c(C=C2C(=O)Nc3ccc(S(=O)(=O)Cc4c(Cl)cccc4Cl)cc32)c(C)c1C(=O)N1CCCC1CN1CCCC1 (stereo not drawn) , kindly confirm whether its cell count is beneath 8000.
# output fulfilled

# input Lab log: compare recorded cell count with 8000; is it strictly lower for CC[C@H]1OC(=O)[C@H](C)[C@@H](O[C@H]2C[C@@](C)(OC)[C@@H](O)[C@H](C)O2)[C@H](C)[C@@H](O[C@@H]2O[C@H](C)C[C@H](N(C)C)[C@H]2O)C(C)(O)C[C@@H](C)CN(C)[C@H](C)[C@@H](O)[C@]1(C)O (stereo partly drawn) ?
# output not fulfilled

# input Could you please tell me whether cell count recorded for CN1CC[C@]23c4ccccc4N[C@H]1[C@]21CCN(C)[C@H]3Nc2ccccc21 is less than 8000?
# output not fulfilled

# input Hello, I'm reviewing records and need to know if cell count of CCC1C(=O)N(C)c2cnc(Nc3ccc(C(=O)NC4CCC(N5CCN(CC6CC6)CC5)CC4)cc3OC)nc2N1C(C)C (stereo not drawn) is below 8000. Could you check?
# output fulfilled
